- TARGET UNDER TEST: T1, FPN1-GFP (human, UniProt Q9NP59 1-571, A GFP reporter is fused to the C terminus of FPN1. Its letters are not given, so it is left out.)
- T1 sequence: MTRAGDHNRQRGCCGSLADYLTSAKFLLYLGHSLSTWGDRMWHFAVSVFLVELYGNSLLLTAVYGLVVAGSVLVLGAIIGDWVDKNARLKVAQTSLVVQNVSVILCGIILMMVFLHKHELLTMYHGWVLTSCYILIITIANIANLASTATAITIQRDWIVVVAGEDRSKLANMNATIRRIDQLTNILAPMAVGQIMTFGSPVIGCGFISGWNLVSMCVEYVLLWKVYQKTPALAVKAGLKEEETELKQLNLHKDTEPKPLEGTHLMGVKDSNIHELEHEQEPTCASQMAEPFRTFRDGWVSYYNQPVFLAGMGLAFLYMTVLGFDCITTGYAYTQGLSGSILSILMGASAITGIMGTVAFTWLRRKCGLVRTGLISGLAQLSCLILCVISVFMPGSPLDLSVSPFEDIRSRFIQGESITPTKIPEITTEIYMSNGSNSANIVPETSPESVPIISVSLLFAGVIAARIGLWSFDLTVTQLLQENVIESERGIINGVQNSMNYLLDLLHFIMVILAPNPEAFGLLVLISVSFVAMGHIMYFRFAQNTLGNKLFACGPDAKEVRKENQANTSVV
- METHOD NOTES: cell-based or functional assay
Listed here: items and their measured Top % Inhibition (hepcidin-25-induced internalization and degradation of FPN1-GFP).
Give the quantity in %, number only.

Mab 34A9 (antibody, mouse IgG1, kappa, V domains shown) VH: QVQLKQSGAELVRPGTSVKVSCKASGYAFTNFLIEWLKQRPGQGLEWIGTINPETGGTKYNEKFRGKATLTADKSSSTAYMQLNSLTSDDSAVYFCVREFFDYWGQGTSLTVSS VL: ETTVTQSPSYLAASPGETITINCRASKSISKYLAWFQEKPGKTNKLLIYAGSTLHSGIPSRFSGSGSGTDFTLTISSLEPEDFAMYYCQQHNEYPYTFGGGTKLELKR	55.2

Task: Value lookup for Top % Inhibition (hepcidin-25-induced internalization and degradation of FPN1-GFP); key = Mab 4A10-3 (antibody, human IgG4 S228P, kappa, F234A L235A, V domains shown) VH: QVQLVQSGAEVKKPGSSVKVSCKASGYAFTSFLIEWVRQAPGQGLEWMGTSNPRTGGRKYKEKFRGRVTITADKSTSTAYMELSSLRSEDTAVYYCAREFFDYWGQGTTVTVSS VL: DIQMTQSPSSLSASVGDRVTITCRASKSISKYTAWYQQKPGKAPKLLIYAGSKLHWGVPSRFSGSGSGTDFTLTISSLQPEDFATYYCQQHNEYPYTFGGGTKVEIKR
Result: 85.9
